Data origin: patent US9150583B2

Target: Recombinant human CETP (Homo sapiens (Human), UniProt P11597)
Sequence (P11597 18-493): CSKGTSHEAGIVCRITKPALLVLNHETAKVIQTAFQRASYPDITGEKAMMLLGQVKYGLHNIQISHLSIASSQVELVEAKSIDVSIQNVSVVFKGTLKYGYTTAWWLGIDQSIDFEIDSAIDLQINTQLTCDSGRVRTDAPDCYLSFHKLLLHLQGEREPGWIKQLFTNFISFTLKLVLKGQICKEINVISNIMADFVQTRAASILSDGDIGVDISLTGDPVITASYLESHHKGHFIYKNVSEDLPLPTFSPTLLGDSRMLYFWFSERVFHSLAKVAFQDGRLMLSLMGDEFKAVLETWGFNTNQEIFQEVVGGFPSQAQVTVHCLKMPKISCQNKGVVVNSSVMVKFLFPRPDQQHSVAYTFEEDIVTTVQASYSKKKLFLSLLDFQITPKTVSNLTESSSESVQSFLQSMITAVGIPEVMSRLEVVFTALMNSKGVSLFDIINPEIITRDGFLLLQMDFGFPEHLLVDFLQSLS
Test: CETP in vitro assay (fluorometric, Roar Biomedical)
Conditions: 3 hours at 37° C., compound concentrations between 1 nM and 30 μM, read-out: IC50 values for inhibition of CETP
propertyMeasured: IC50 (nM)

{"substanceSmiles": "CC(C)c1nc2c(c3c1[C@@H](c1ccc(C(F)(F)F)cc1)OC31CCOCC1)[C@@H](O)CC1(CC1)C2", "assaySystem": "Recombinant human CETP (Homo sapiens (Human), UniProt P11597)", "outputUnit": "nM", "valueMeasured": 15}
{"substanceSmiles": "CC(C)c1nc2c(c3c1[C@@H](c1ccc(C(F)(F)F)c(C#N)c1)OC31CCOCC1)[C@@H](O)CC1(CC1)[C@H]2O", "assaySystem": "Recombinant human CETP (Homo sapiens (Human), UniProt P11597)", "outputUnit": "nM", "valueMeasured": 43}
{"substanceSmiles": "COc1cc([C@H]2OC3(CCOCC3)c3c2c(C(C)C)nc2c3[C@@H](O)CC3(CC3)C2)ccc1C(F)(F)F", "assaySystem": "Recombinant human CETP (Homo sapiens (Human), UniProt P11597)", "outputUnit": "nM", "valueMeasured": 11}
{"substanceSmiles": "CC(C)c1nc2c(c3c1[C@@H](c1ccc(C(F)(F)F)cc1)OC31CCOCC1)[C@@H](O)CC1(CC1)[C@H]2O", "assaySystem": "Recombinant human CETP (Homo sapiens (Human), UniProt P11597)", "outputUnit": "nM", "valueMeasured": 9}
{"substanceSmiles": "CC(C)c1nc2c(c3c1[C@@H](c1ccc(C(F)(F)F)c(C#N)c1)OC31CCOCC1)[C@@H](O)CC1(CC1)C2", "assaySystem": "Recombinant human CETP (Homo sapiens (Human), UniProt P11597)", "outputUnit": "nM", "valueMeasured": 18}

a = COc1cc([C@H]2OC3(CCOCC3)c3c2c(C(C)C)nc2c3[C@@H](O)CC3(CC3)[C@H]2O)ccc1C(F)(F)F
b = CC(C)c1nc2c(c3c1[C@@H](c1ccc(C(F)(F)F)nc1)OC31CCOCC1)[C@@H](O)CC1(CC1)C2
Smaller IC50 value? Options are a and b Refer to your chosen item by its label in the answer.
a
(a: 11 nM, b: 90 nM)

====

Test: Assay for metabolic degradation
Type: in vitro ADME
Conditions: pH 7.6; pooled human liver microsomes, 37° C., microsomal protein 1 mg/ml, test compound 1 μM, NADPH 1 mM; read-out: half-life (t½) values for human liver microsomal metabolic degradation
Here the recorded half-life at 1 μM is given for each entry.

Worked cases, half-life at 1 μM given:
{"compound": "CC(C)c1nc2c(c3c1[C@@H](c1ccc(C(F)(F)F)c(C#N)c1)OC31CCOCC1)[C@@H](O)CC1(CC1)C2 [Example 2]", "valueMeasured": "> 130 min"}
{"compound": "CC(C)c1nc2c(c3c1[C@@H](c1ccc(C(F)(F)F)cc1)OC31CCOCC1)[C@@H](O)CC1(CC1)[C@H]2O [Example 5]", "valueMeasured": "57 min"}
{"compound": "CC(C)c1nc2c(c3c1[C@@H](c1ccc(C(F)(F)F)cc1)OC31CCOCC1)[C@@H](O)CC1(CC1)C2 [Example 1]", "valueMeasured": "> 130 min"}

For the next question, use this compound.
Give recorded half-life at 1 μM. CC(C)c1nc2c(c3c1[C@@H](c1ccc(C(F)(F)F)nc1)OC31CCOCC1)[C@@H](O)CC1(CC1)[C@H]2O [Example 8]
> 130 min
